Numbered stars: 1 amine (or outer) side, 2 acyl side, 3 side chain; on linkers, the order of the positions; unused ones are H or OH. Bridge positions count the residues as written; N and C are the ends. Square brackets hold non-standard residues; d marks the D form. Peptide text beside a SMILES is read from it. * marks the point of attachment. Piperazine(2S-CO,4-Me) = CN1CCN[C@H](C(=O)O)C1; Phe(3,5-Me2) = Cc1cc(C)cc(C[C@H](N)C(=O)O)c1; Phe(3-Cl) = N[C@@H](Cc1cccc(Cl)c1)C(=O)O; Morpholine(3S-CO) = O=C(O)[C@@H]1COCCN1; Phe(3-Me) = Cc1cccc(C[C@H](N)C(=O)O)c1; NH(4-Cl-2-F-phenyl) = Fc1cc(Cl)ccc1N*; Pro(4R-Me) = C[C@H]1CN[C@H](C(=O)O)C1; Hyp = O=C(O)[C@@H]1C[C@@H](O)CN1; NH(4-Me-phenyl) = Cc1ccc(N*)cc1; aThr = C[C@H](O)[C@H](N)C(=O)O; Pip = O=C(O)[C@@H]1CCCCN1; X3 = c1cc2c(cc1N*)OCCO2; CO = O=C([*:1])[*:2]
Hi! I'm sharing some IC50 results obtained with Sa-ClpP (Staphylococcus aureus).
Sequence (Q2G036 whole entry): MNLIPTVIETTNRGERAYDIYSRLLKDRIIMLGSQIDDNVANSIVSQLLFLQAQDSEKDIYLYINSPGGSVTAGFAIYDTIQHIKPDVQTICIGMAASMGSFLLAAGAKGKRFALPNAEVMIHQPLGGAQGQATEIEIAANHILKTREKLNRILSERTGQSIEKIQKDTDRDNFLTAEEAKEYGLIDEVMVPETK

Field: example entries. Status: answers known.
Molecule	System tested	Measurement name	Result
Cc1cccc(C[C@H](NC(=O)Nc2ccc(Cl)cc2F)C(=O)N[C@H]2COC(=O)[C@@H]3C[C@@H](C)CN3C(=O)[C@H](C)NC(=O)[C@@H]3CCCCN3C(=O)[C@@H]3CCCN3C2=O)c1	Sa-ClpP (Staphylococcus aureus)	IC50	3.51 µM
Cc1cccc(C[C@H](NC(=O)Nc2ccc3c(c2)OCCO3)C(=O)N[C@@H]2C(=O)N3CCC[C@H]3C(=O)N3CCCC[C@H]3C(=O)N[C@@H](C)C(=O)N3C[C@H](C)C[C@H]3C(=O)O[C@H]2C)c1 [Compound 21] ({X3-CO}-[Phe(3-Me)][aThr]P[Pip]A[Pro(4R-Me)]; ester 2-C)	Sa-ClpP (Staphylococcus aureus)	IC50	3.74 µM
Cc1cccc(C[C@H](NC(=O)Nc2ccc3c(c2)OCO3)C(=O)N[C@H]2COC(=O)[C@@H]3C[C@@H](C)CN3C(=O)[C@H](C)NC(=O)[C@@H]3CCCCN3C(=O)[C@@H]3CCCN3C2=O)c1	Sa-ClpP (Staphylococcus aureus)	IC50	1.96 µM

Summary for this molecule, Cc1cccc(C[C@H](NC(=O)Nc2ccc3c(c2)OCCO3)C(=O)N[C@@H]2C(=O)N3C[C@H](O)C[C@H]3C(=O)N3CCCC[C@H]3C(=O)N[C@@H](C)C(=O)N3C[C@H](C)C[C@H]3C(=O)O[C@H]2C)c1 [Compound 28] ({X3-CO}-[Phe(3-Me)][aThr][Hyp][Pip]A[Pro(4R-Me)]; ester 2-C) : IC50 is 4.86 µM

Summary for this molecule, Cc1ccc(NC(=O)N[C@@H](Cc2cccc(C)c2)C(=O)N[C@@H]2C(=O)N3C[C@H](O)C[C@H]3C(=O)N3CCCC[C@H]3C(=O)N[C@@H](C)C(=O)N3C[C@H](C)C[C@H]3C(=O)O[C@H]2C)cc1 [Compound 26] ({NH(4-Me-phenyl)-CO}-[Phe(3-Me)][aThr][Hyp][Pip]A[Pro(4R-Me)]; ester 2-C) : IC50 is 4.26 µM

Summary for this molecule, Cc1cccc(C[C@H](NC(=O)Nc2ccc3c(c2)OCCO3)C(=O)N[C@@H]2C(=O)N3C[C@H](O)C[C@H]3C(=O)N3CCOC[C@H]3C(=O)N[C@@H](C)C(=O)N3C[C@H](C)C[C@H]3C(=O)O[C@H]2C)c1 [Compound 27] ({X3-CO}-[Phe(3-Me)][aThr][Hyp][Morpholine(3S-CO)]A[Pro(4R-Me)]; ester 2-C) : IC50 is 5.13 µM

Summary for this molecule, C[C@@H]1C[C@H]2C(=O)O[C@@H](C)[C@H](NC(=O)[C@H](Cc3cccc(Cl)c3)NC(=O)Nc3ccc(Cl)cc3F)C(=O)N3CCC[C@H]3C(=O)N3CCN(C)C[C@H]3C(=O)N[C@@H](C)C(=O)N2C1 [Compound 33] ({NH(4-Cl-2-F-phenyl)-CO}-[Phe(3-Cl)][aThr]P[Piperazine(2S-CO,4-Me)]A[Pro(4R-Me)]; ester 2-C) : IC50 is 3.16 µM

Summary for this molecule, Cc1cc(C)cc(C[C@H](NC(=O)Nc2ccc(Cl)cc2F)C(=O)N[C@@H]2C(=O)N3CCC[C@H]3C(=O)N3CCCC[C@H]3C(=O)N[C@@H](C)C(=O)N3C[C@H](C)C[C@H]3C(=O)O[C@H]2C)c1 [Compound 4] ({NH(4-Cl-2-F-phenyl)-CO}-[Phe(3,5-Me2)][aThr]P[Pip]A[Pro(4R-Me)]; ester 2-C) : IC50 is 6.45 µM

---

Recorded solubility kinetic at 10 min values for a group of compounds are listed next.
Measurement notes: Solubility determination
Assay type: physicochemical
Reported conditions: 22 °C, aqueous buffer, kinetic from dmso stock
Numbered stars: 1 amine (or outer) side, 2 acyl side, 3 side chain; on linkers, the order of the positions; unused ones are H or OH. Bridge positions count the residues as written; N and C are the ends. Square brackets hold non-standard residues; d marks the D form. Peptide text beside a SMILES is read from it. * marks the point of attachment. Phe(3-CF3) = N[C@@H](Cc1cccc(C(F)(F)F)c1)C(=O)O; Piperazine(2S-CO,4-Me) = CN1CCN[C@H](C(=O)O)C1; NH(4-Cl-2-F-phenyl) = Fc1cc(Cl)ccc1N*; Pro(4R-Me) = C[C@H]1CN[C@H](C(=O)O)C1; CO = O=C([*:1])[*:2]
The response must be a number in µM with no trailing unit.

Summary for this compound, Cc1cccc(C[C@H](NC(=O)Nc2ccc(Cl)cc2F)C(=O)N[C@H]2COC(=O)[C@@H]3C[C@@H](C)CN3C(=O)[C@H](C)NC(=O)[C@@H]3CCCCN3C(=O)[C@@H]3C[C@H](N)CN3C2=O)c1 [Compound 12] : solubility kinetic at 10 min is 37.5

Summary for this compound, C[C@@H]1C[C@H]2C(=O)OC[C@H](NC(=O)[C@H](Cc3cccc(C(F)(F)F)c3)NC(=O)Nc3ccc(Cl)cc3F)C(=O)N3CCC[C@H]3C(=O)N3CCN(C)C[C@H]3C(=O)N[C@@H](C)C(=O)N2C1 [Compound 18] ({NH(4-Cl-2-F-phenyl)-CO}-[Phe(3-CF3)]SP[Piperazine(2S-CO,4-Me)]A[Pro(4R-Me)]; ester 2-C) : solubility kinetic at 10 min is 22.6

---

Recorded MIC values for a group of molecules are listed next.
Tested on: S. aureus USA 300
Measurement notes: Minimal inhibitory concentration, microbroth dilution
Assay type: cell-based
Reported conditions: Staphylococcus aureus, USA300; MIC; read-out: Minimal Inhibitory Concentrations (μM) S. aureus USA 300
Numbered stars: 1 amine (or outer) side, 2 acyl side, 3 side chain; on linkers, the order of the positions; unused ones are H or OH. Bridge positions count the residues as written; N and C are the ends. Square brackets hold non-standard residues; d marks the D form. Peptide text beside a SMILES is read from it. * marks the point of attachment. Piperazine(2S-CO,4-Me) = CN1CCN[C@H](C(=O)O)C1; Phe(3,5-F2) = N[C@@H](Cc1cc(F)cc(F)c1)C(=O)O; NH(4-Cl-2-F-phenyl) = Fc1cc(Cl)ccc1N*; Pro(4R-Me) = C[C@H]1CN[C@H](C(=O)O)C1; CO = O=C([*:1])[*:2]
The response must be a number in µM with no trailing unit.

Molecule	Measured number
CCc1ccc(NC(=O)N[C@@H](Cc2cccc(C)c2)C(=O)N[C@H]2COC(=O)[C@@H]3CCCN3C(=O)[C@H](C)NC(=O)[C@@H]3CCCCN3C(=O)[C@@H]3C[C@@H](O)CN3C2=O)cc1 [Compound 55]	2.5

Consider the record given below.
Summary for this molecule, C[C@@H]1C[C@H]2C(=O)OC[C@H](NC(=O)[C@H](Cc3cc(F)cc(F)c3)NC(=O)Nc3ccc(Cl)cc3F)C(=O)N3CCC[C@H]3C(=O)N3CCN(C)C[C@H]3C(=O)N[C@@H](C)C(=O)N2C1 [Compound 34] ({NH(4-Cl-2-F-phenyl)-CO}-[Phe(3,5-F2)]SP[Piperazine(2S-CO,4-Me)]A[Pro(4R-Me)]; ester 2-C) : MIC is 0.156

---

Recorded solubility kinetic at 10 min values for a group of compounds are listed next.
Measurement notes: Solubility determination
Type: physicochemical
Reported conditions: 22 °C, aqueous buffer, kinetic from dmso stock; solubility in DPBS, 100 μM test samples, LCMS; read-out: LCMS
Numbered stars: 1 amine (or outer) side, 2 acyl side, 3 side chain; on linkers, the order of the positions; unused ones are H or OH. Bridge positions count the residues as written; N and C are the ends. Square brackets hold non-standard residues; d marks the D form. Peptide text beside a SMILES is read from it. * marks the point of attachment. Phe(3-Me) = Cc1cccc(C[C@H](N)C(=O)O)c1; Pro(4S-Me) = C[C@@H]1CN[C@H](C(=O)O)C1; Pro(4R-Me) = C[C@H]1CN[C@H](C(=O)O)C1; X1 = O=C([C@@H]1CSCCN1[*:1])[*:2]; Hyp = O=C(O)[C@@H]1C[C@@H](O)CN1; NH(4-Me-phenyl) = Cc1ccc(N*)cc1; aThr = C[C@H](O)[C@H](N)C(=O)O; Pip = O=C(O)[C@@H]1CCCCN1; CO = O=C([*:1])[*:2]
The response must be a number in µM with no trailing unit.

Compound	Measured number
Cc1ccc(NC(=O)N[C@@H](Cc2cccc(C)c2)C(=O)N[C@@H]2C(=O)N3C[C@H](O)C[C@H]3C(=O)N3CCSC[C@H]3C(=O)N[C@@H](C)C(=O)N3C[C@H](C)C[C@H]3C(=O)O[C@H]2C)cc1 [Compound 42] ({NH(4-Me-phenyl)-CO}-[Phe(3-Me)][aThr][Hyp][X1]A[Pro(4R-Me)]; ester 2-C)	29.2

Consider the record given below.
Summary for this compound, Cc1ccc(NC(=O)N[C@@H](Cc2cccc(C)c2)C(=O)N[C@@H]2C(=O)N3CCC[C@H]3C(=O)N3CCCC[C@H]3C(=O)N[C@@H](C)C(=O)N3C[C@@H](C)C[C@H]3C(=O)O[C@H]2C)cc1 [Compound 45] ({NH(4-Me-phenyl)-CO}-[Phe(3-Me)][aThr]P[Pip]A[Pro(4S-Me)]; ester 2-C) : solubility kinetic at 10 min is 44.5
